Attribution: patent US9989543B2

- method: Olmesartan blood concentration/AUC after 7-day versus single-day dosing
- Assay type: in vivo, Korean healthy males
- experimental conditions: male, human, blood, oral, 24 hr, before accumulation; read-out: blood concentration remaining at 24 hr
assay metric: concentration at 24 h

Entry CCCc1nc(C(C)(C)O)c(C(=O)O)n1Cc1ccc(-c2ccccc2-c2nnn[nH]2)cc1 ; concentration at 24 h = ~40 ng/mL

* * *

- method: Olmesartan blood concentration/AUC after 7-day versus single-day dosing
- Type: in vivo, Korean healthy males
- experimental conditions: male, human, blood, oral, Time 5 hrs; drug taken only one day; read-out: Blood concentration (ng/mL)/Non-Compliance-1X
assay metric: concentration at 5 h
A bare number is not enough; add the unit after it.

# compound CCCc1nc(C(C)(C)O)c(C(=O)O)n1Cc1ccc(-c2ccccc2-c2nnn[nH]2)cc1 ; its concentration at 5 h = 617 ng/mL
